Recorded inhibition by entry
Tested on: Proto-oncogene tyrosine-protein kinase receptor Ret (Homo sapiens), P07949 [V804L]
Sequence (P07949 whole entry V804L): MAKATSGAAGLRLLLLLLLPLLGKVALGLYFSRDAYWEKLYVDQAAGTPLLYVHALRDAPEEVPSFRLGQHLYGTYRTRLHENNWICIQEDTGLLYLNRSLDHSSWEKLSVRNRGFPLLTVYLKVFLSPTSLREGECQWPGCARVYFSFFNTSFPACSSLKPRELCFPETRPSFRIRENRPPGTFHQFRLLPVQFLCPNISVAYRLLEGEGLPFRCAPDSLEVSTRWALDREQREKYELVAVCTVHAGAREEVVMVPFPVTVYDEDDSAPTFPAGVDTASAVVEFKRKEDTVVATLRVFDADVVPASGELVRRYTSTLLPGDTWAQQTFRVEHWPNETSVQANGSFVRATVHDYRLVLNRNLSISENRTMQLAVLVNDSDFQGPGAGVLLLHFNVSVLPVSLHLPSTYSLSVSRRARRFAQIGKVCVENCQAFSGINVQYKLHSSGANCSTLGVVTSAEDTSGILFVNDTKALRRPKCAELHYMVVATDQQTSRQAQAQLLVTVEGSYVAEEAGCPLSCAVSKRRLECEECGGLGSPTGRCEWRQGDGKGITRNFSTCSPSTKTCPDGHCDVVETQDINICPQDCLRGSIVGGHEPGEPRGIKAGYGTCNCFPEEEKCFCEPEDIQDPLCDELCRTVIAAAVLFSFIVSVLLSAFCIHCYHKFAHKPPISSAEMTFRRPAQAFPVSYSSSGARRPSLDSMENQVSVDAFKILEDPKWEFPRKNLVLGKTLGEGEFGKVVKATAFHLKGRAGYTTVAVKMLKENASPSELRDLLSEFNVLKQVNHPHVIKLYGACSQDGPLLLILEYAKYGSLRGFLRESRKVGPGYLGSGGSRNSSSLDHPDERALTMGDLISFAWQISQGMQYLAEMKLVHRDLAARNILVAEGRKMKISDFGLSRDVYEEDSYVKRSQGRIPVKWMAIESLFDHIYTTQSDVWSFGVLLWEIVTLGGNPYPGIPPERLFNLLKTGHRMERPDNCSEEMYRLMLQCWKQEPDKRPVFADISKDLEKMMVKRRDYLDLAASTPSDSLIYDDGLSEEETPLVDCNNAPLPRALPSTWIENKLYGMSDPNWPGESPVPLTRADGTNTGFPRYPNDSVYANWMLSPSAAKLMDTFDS
Details: at 0.1 µM

COMPOUND: c1ccc(Oc2ccc(Nc3ncc(-c4ccccc4)o3)cc2)cc1
READOUT UNIT: %
inhibition: 4.18

COMPOUND: O=C1Nc2ccccc2/C1=C/Nc1ccc(-n2cncn2)cc1
READOUT UNIT: %
inhibition: 20.2

COMPOUND: COc1ccc2cc(-c3c(-c4ccncc4)nc(-c4ccc([S+](C)[O-])cc4C)n3C)ccc2c1 (stereo unspecified)
READOUT UNIT: %
inhibition: 1.07

COMPOUND: Fc1ccc(-c2c(-c3ccncc3)nc3n2CCS3)cc1
READOUT UNIT: %
inhibition: 3.1

COMPOUND: CS(=O)(=O)CCNCc1cc(-c2cc3c(Nc4ccc(OCc5cccc(F)c5)c(Cl)c4)ncnc3s2)cs1
READOUT UNIT: %
inhibition: 4.33

COMPOUND: Clc1ccc(CNc2nccc(-c3cnn4ncccc34)n2)cc1
READOUT UNIT: %
inhibition: -0.76

---

Tested on: Epidermal growth factor receptor (Homo sapiens), P00533 [L858R,T790M]
Sequence (P00533 whole entry T790M/L858R, looked up): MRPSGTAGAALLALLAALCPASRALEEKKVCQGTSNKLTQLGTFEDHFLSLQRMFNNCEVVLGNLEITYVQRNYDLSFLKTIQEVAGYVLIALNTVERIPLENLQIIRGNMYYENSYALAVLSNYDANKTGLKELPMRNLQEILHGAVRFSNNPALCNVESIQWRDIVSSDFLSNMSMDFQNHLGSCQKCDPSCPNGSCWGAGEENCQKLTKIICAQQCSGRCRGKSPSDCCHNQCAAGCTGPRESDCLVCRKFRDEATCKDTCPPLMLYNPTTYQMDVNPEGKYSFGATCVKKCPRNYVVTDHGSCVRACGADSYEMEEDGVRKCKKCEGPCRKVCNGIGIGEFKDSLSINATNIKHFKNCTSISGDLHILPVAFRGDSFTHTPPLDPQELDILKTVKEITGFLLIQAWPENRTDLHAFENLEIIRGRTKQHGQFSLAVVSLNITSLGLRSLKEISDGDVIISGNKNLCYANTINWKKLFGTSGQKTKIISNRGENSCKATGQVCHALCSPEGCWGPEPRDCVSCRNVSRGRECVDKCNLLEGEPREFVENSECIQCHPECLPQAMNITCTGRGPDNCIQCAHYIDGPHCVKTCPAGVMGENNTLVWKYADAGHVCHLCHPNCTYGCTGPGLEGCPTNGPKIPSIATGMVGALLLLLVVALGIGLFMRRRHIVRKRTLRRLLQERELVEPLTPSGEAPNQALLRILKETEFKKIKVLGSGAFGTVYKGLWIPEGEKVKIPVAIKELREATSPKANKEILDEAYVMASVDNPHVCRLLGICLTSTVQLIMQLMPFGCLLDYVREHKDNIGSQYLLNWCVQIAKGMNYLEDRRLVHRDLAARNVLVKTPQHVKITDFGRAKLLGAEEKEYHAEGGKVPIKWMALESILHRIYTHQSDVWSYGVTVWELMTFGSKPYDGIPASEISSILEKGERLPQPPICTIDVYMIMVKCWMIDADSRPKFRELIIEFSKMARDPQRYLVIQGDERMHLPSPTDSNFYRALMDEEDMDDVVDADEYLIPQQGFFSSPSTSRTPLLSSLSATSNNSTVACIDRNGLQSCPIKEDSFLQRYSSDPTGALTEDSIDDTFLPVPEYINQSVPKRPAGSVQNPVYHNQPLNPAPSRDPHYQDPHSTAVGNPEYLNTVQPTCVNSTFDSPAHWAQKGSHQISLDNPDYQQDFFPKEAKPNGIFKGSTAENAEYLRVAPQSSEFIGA
Conditions: at 1 µM
Entries and their inhibition

SMILES STRUCTURE: C#Cc1cccc(Nc2ncnc3ccc(OCCCCNCCS(C)(=O)=O)cc23)c1
SYSTEM NAME: Epidermal growth factor receptor (Homo sapiens), P00533 [L858R,T790M]
inhibition (%): 22.8
//
SMILES STRUCTURE: CCS(=O)(=O)c1ccc(OC)c(Nc2ncc(-c3ccccc3Cl)o2)c1
SYSTEM NAME: Epidermal growth factor receptor (Homo sapiens), P00533 [L858R,T790M]
inhibition (%): -0.03
//
SMILES STRUCTURE: O=C(Nc1n[nH]c2nc(-c3ccco3)ccc12)C1CC1
SYSTEM NAME: Epidermal growth factor receptor (Homo sapiens), P00533 [L858R,T790M]
inhibition (%): -1.34
//
SMILES STRUCTURE: Fc1ccc(-c2nc3n(c2-c2ccncc2)CCS3)cc1
SYSTEM NAME: Epidermal growth factor receptor (Homo sapiens), P00533 [L858R,T790M]
inhibition (%): 1.42
//
SMILES STRUCTURE: C/C(Nc1ccc(S(N)(=O)=O)cc1)=C1/C(=O)Nc2ccccc21
SYSTEM NAME: Epidermal growth factor receptor (Homo sapiens), P00533 [L858R,T790M]
inhibition (%): -1.66
//
SMILES STRUCTURE: CN1CCN(CCCNc2nc3ccc(Oc4ccc(NC(=O)Nc5cc(C(F)(F)F)ccc5F)cc4)cc3[nH]2)CC1
SYSTEM NAME: Epidermal growth factor receptor (Homo sapiens), P00533 [L858R,T790M]
inhibition (%): -4.26
//
SMILES STRUCTURE: Cc1ccc(C(=O)NC(C)C)cc1-c1ccc(C(=O)NCC2CC2)cc1
SYSTEM NAME: Epidermal growth factor receptor (Homo sapiens), P00533 [L858R,T790M]
inhibition (%): -0.98
//
SMILES STRUCTURE: CCS(=O)(=O)c1ccc(OC)c(Nc2ncc(-c3cccc(-c4ccccc4F)c3)o2)c1
SYSTEM NAME: Epidermal growth factor receptor (Homo sapiens), P00533 [L858R,T790M]
inhibition (%): 5.25
//
SMILES STRUCTURE: NS(=O)(=O)c1ccc(N/N=C2\C(=O)Nc3ccc(C(=O)NCCCn4ccnc4)cc32)cc1
SYSTEM NAME: Epidermal growth factor receptor (Homo sapiens), P00533 [L858R,T790M]
inhibition (%): 4.72
//
SMILES STRUCTURE: COc1ccc2ncn(-c3cc(O[C@H](C)c4ccccc4Cl)c(C(N)=O)s3)c2c1
SYSTEM NAME: Epidermal growth factor receptor (Homo sapiens), P00533 [L858R,T790M]
inhibition (%): 4.57
//
SMILES STRUCTURE: O=C(Nc1n[nH]c2cc(-c3cc(F)ccc3F)ccc12)C1CC1
SYSTEM NAME: Epidermal growth factor receptor (Homo sapiens), P00533 [L858R,T790M]
inhibition (%): 2.41
//
SMILES STRUCTURE: CS(=O)(=O)CCNCc1ccc(-c2ccc3ncnc(Nc4ccc(OCc5ccccc5)c(Br)c4)c3c2)o1
SYSTEM NAME: Epidermal growth factor receptor (Homo sapiens), P00533 [L858R,T790M]
inhibition (%): -0.73
//
SMILES STRUCTURE: N#Cc1ccc(Oc2nccc(-c3c(-c4ccc(F)cc4)ncn3C3CCNCC3)n2)cc1
SYSTEM NAME: Epidermal growth factor receptor (Homo sapiens), P00533 [L858R,T790M]
inhibition (%): 0.7
//
SMILES STRUCTURE: CN(c1ccc(NC(=O)Nc2c(Cl)cccc2Cl)cc1)c1ccnc(Nc2cccc(CS(C)(=O)=O)c2)n1
SYSTEM NAME: Epidermal growth factor receptor (Homo sapiens), P00533 [L858R,T790M]
inhibition (%): 3.18
//
SMILES STRUCTURE: CS(=O)(=O)CCNCc1cc(-c2cc3c(Nc4ccc(OCc5cccc(F)c5)c(Cl)c4)ncnc3s2)cs1
SYSTEM NAME: Epidermal growth factor receptor (Homo sapiens), P00533 [L858R,T790M]
inhibition (%): 6.55
//
SMILES STRUCTURE: Fc1ccc(-c2ncn(C3CCNCC3)c2-c2ccnc(Oc3ccc(F)c(F)c3)n2)cc1
SYSTEM NAME: Epidermal growth factor receptor (Homo sapiens), P00533 [L858R,T790M]
inhibition (%): 1.47
//
SMILES STRUCTURE: COc1cc2ncn(-c3cc(OCc4cccs4)c(C(N)=O)s3)c2cc1OC
SYSTEM NAME: Epidermal growth factor receptor (Homo sapiens), P00533 [L858R,T790M]
inhibition (%): 5.43
//
SMILES STRUCTURE: NS(=O)(=O)c1ccc(N/N=C2\C(=O)Nc3ccc(-c4cnco4)cc32)cc1
SYSTEM NAME: Epidermal growth factor receptor (Homo sapiens), P00533 [L858R,T790M]
inhibition (%): 5.42
//
SMILES STRUCTURE: CN(C)CCCNc1nccc(-c2c(-c3ccc(F)cc3)nn3cc(C(F)(F)F)ccc23)n1
SYSTEM NAME: Epidermal growth factor receptor (Homo sapiens), P00533 [L858R,T790M]
inhibition (%): 1.55
//
SMILES STRUCTURE: Fc1ccc(-c2c(-c3ccncc3)nc3n2CCS3)cc1
SYSTEM NAME: Epidermal growth factor receptor (Homo sapiens), P00533 [L858R,T790M]
inhibition (%): 2.54
